- ASSAY_SYSTEM: T1, recombinant human IGF-II (Insulin-like Growth Factor II) (human, UniProt P01344 25-91, biotinylated (Biotinyl-IGF-II, GroPep) where immobilised in SPR, site not stated; not biotinylated in ITC and as SPR analyte)
- T1 construct: also called IGF2; IGF-2
- T1 sequence (P01344 25-91 limits assumed): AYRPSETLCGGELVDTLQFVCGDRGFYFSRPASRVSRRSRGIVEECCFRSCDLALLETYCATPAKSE
- PROCEDURE_SUMMARY: SPR, steady-state KD relative to wild type
ENDPOINT_LABEL: Relative Affinity

Consider the reported Relative Affinity for these binders:
IGF2R domain 11 with threonine at position 1544 (E1544T) (receptor) NEHDDCQVTNPSTGHLFDLSSLSGRAGFTAAYSTKGLVYMSICGENENCPPGVGACFGQTRISVGKANKRLRYVDQVLQLVYKDGSPCPSKSGLSYKSVISFVCRPEAGPTNRPMLISLDKQTCTLFFSWHTPLACEQATHHHHHH
1.72 fold (wild type = 1.00)
IGF2R domain 11 E1544K (amino acids 1511-1650, C-terminal His6 tag, from Pichia pastoris) (receptor, also called enhanced mutant) NEHDDCQVTNPSTGHLFDLSSLSGRAGFTAAYSKKGLVYMSICGENENCPPGVGACFGQTRISVGKANKRLRYVDQVLQLVYKDGSPCPSKSGLSYKSVISFVCRPEAGPTNRPMLISLDKQTCTLFFSWHTPLACEQATHHHHHH
6.12 fold (wild type = 1.00)
IGF2R domain 11 with glycine at position 1544 (E1544G) (receptor) NEHDDCQVTNPSTGHLFDLSSLSGRAGFTAAYSGKGLVYMSICGENENCPPGVGACFGQTRISVGKANKRLRYVDQVLQLVYKDGSPCPSKSGLSYKSVISFVCRPEAGPTNRPMLISLDKQTCTLFFSWHTPLACEQATHHHHHH
0.57 fold (wild type = 1.00)

Item under review: IGF2R domain 11 with methionine at position 1544 (E1544M) (receptor) NEHDDCQVTNPSTGHLFDLSSLSGRAGFTAAYSMKGLVYMSICGENENCPPGVGACFGQTRISVGKANKRLRYVDQVLQLVYKDGSPCPSKSGLSYKSVISFVCRPEAGPTNRPMLISLDKQTCTLFFSWHTPLACEQATHHHHHH . Reported Relative Affinity?
2.75 fold (wild type = 1.00)

Item under review: IGF2R domain 11 with arginine at position 1544 (E1544R) (receptor) NEHDDCQVTNPSTGHLFDLSSLSGRAGFTAAYSRKGLVYMSICGENENCPPGVGACFGQTRISVGKANKRLRYVDQVLQLVYKDGSPCPSKSGLSYKSVISFVCRPEAGPTNRPMLISLDKQTCTLFFSWHTPLACEQATHHHHHH . Reported Relative Affinity?
7.33 fold (wild type = 1.00)

Item under review: IGF2R domain 11 with serine at position 1544 (E1544S) (receptor) NEHDDCQVTNPSTGHLFDLSSLSGRAGFTAAYSSKGLVYMSICGENENCPPGVGACFGQTRISVGKANKRLRYVDQVLQLVYKDGSPCPSKSGLSYKSVISFVCRPEAGPTNRPMLISLDKQTCTLFFSWHTPLACEQATHHHHHH . Reported Relative Affinity?
5.24 fold (wild type = 1.00)

Data origin: patent US20090304651A1
